Where these numbers come from: PubChem BioAssay (NCI)

test system: UACC-62 melanoma; assay: NCI-60 one-dose screen, 48 h; settings: 10 µM unless noted
This is part of a sample that, as a whole, favours compounds with a hit. Of some 83,000 tested, about 20% had one in any assay. Activity calls are given as the source filed them. Rule for the calls: active = growth percent below 10; inactive = the rest.
Outcomes: active, inactive

molecule	assigned_class
COc1ccc(NC(=O)CSc2nnc(-c3ccc(-c4nc5ccc(Cl)cc5[nH]4)cc3)o2)cc1	active
Nc1cc2ccccc2c(=O)n1NC(=O)c1ccc(Br)cc1	inactive
CC1=NN(C2=NC(=O)C(CC(=O)Nc3ccccc3C(F)(F)F)S2)C(c2ccc(N(C)C)cc2)C1 (centres undefined)	inactive
N#C/C(=C1/C(=O)Nc2ccccc21)c1nnc(NC(=O)c2ccc(-n3c(=O)[nH]c4ccccc4c3=O)cc2)s1	inactive
COc1ccccc1NC(=O)c1ccc(NC(=O)CCl)s1	active
COc1cccc(C(N)=Nc2ccc(OCCCCCCCCn3cncn3)cc2)c1	inactive
COc1ccc(Nc2nnc(-c3c[nH]c4ccccc34)o2)cc1	inactive
Cn1cc(-c2cc(N)n3nc(-c4c[nH]c5ccc(F)cc45)cc3n2)c2cc(Br)cnc21	inactive
Cc1ccc(C2CC(c3ccc(NC(=O)Nc4ccccc4)cc3)=NN2c2ccc(S(C)(=O)=O)cc2)cc1 (centres undefined)	active
